Reported growth by item:
System: COLO 205 colon
run-description: NCI-60 one-dose screen, 48 h (100 = growth as untreated, 0 = no growth, -100 = all killed)
measurement-conditions: 10 µM unless noted
About 83,000 compounds went through this panel and 20% of them were active in at least one assay; those are over-represented in the sample as a whole.
# number only, unit % dropped from output

> print(dat)
                                   compound  experimental.result
1  CC(Nc1ncnc2ccc(-c3cnc4cnccn34)cc12)c1ccccc1 (stereo unspecified)                   81
2  COc1ccc(C2CC(c3cccc(OCCCCOc4cccc(C5=NOC(c6ccc(OC)cc6)C5)c4)c3)=NO2)cc1 (stereo unspecified)                  100

Here's the next entry for you.
IN: Fill in the recorded growth for this compound, with COLO 205 colon as test system: `O=C(CSc1nc2ccccc2c(=O)n1-c1ccccc1)N/N=C/c1ccc(Oc2ccc(Br)cc2)cc1`
OUT: 44.4

====

Test system: HCT-116 colon
run-description: NCI-60 one-dose screen, 48 h (100 = growth as untreated, 0 = no growth, -100 = all killed)
measurement-conditions: 10 µM unless noted
About 83,000 compounds went through this panel and 20% of them were active in at least one assay; those are over-represented in the sample as a whole.
Think of 10% as a floor: if growth stands on it or above, it is Condition met; beneath it, Condition not met.

These recorded examples may help you get a feel for the data.
> print(dat)
                                   compound   assay.system   class.assignment
1  O=C(CSc1nnc(-c2ccc(Cl)cc2)n1-c1ccccc1)Nc1ccccc1Cl  HCT-116 colon      Condition met
2  CC1(C)CC[C@]2(C(=O)O)CC[C@]3(C)C(=CC[C@@H]4[C@@]5(C)CC[C@H](NOCCCN)C(C)(C)[C@@H]5CC[C@]43C)[C@@H]2C1  HCT-116 colon      Condition met
3  CC(C)(C)Nc1nc2c(OCCc3ccccc3)cccn2c1-c1cccc(Oc2ccccc2)c1  HCT-116 colon  Condition not met
4  CN1CCN(c2ccc(Nc3nc(NCCNC(=O)c4ccccc4)c4sccc4n3)cc2)CC1  HCT-116 colon  Condition not met
5  CC1(C)C=Cc2cc(/C(N)=N/C(N)=N/c3nc4ccccc4s3)ccc2O1  HCT-116 colon      Condition met
6  CCOC(=O)c1c(NCC(=O)Nc2cccc([N+](=O)[O-])c2)sc(C(C)=O)c1C  HCT-116 colon  Condition not met

IN: # check: growth of CCOC(=O)C1=C(C)NC(C)=C(C(=O)OCc2ccccc2)C1c1cccc(C#N)c1 (stereo unspecified) is greater than or equal to 10%
OUT: Condition met

IN: Assess whether reported growth for `CCc1cc(O)ccc1Nc1cc(-c2ccc(-n3cccn3)cc2)[nH]n1` sits at 10% or higher.
OUT: Condition met

IN: Threshold query (growth >= 10%) on `O=C(CSc1nnc(-c2ccc(Cl)cc2)n1-c1ccccc1)Nc1cccc(F)c1`
OUT: Condition not met

IN: Kindly determine if growth recorded for `Cc1ccc(Nc2nc(SC(C)C)nc(-c3ccccc3)c2C#N)cc1` is above or exactly 10%.
OUT: Condition met

IN: Exam item: decide whether the reported growth for `COc1ccc(-c2cc(-c3ccc(N4CCOCC4)cc3)n3c(n2)nc2ccccc23)cc1OC` is at least 10%.
OUT: Condition met

All figures here come from PubChem BioAssay (NCI).
